Give MIC for every item shown.
Test system: E. coli DH10B mcr-1 transformant
procedure details: CLSI broth microdilution MIC, E. coli DH10B mcr-1 transformant
Assay type: cell-based
experimental context: Escherichia coli
One number for each entry, in µg/mL.

Below, each entry is followed by its recorded MIC result.
{"compound": "CSc1cc(-n2cc3cc(-c4cc(CCC[C@@H](N)C5CC5)cc(Cl)c4F)[nH]c3nc2=O)ccc1[C@@H]1CCC[C@@H](CCNC(=N)N)N1 [RX-04B]", "measure unit": "µg/mL", "MIC": 0.5}
{"compound": "C[C@H](N)CCCc1cc(Cl)c(F)c(-c2cc3cn(-c4ccc([C@@H]5CCC[C@@H](CCNC(=N)CN)N5)cc4)c(=O)nc3[nH]2)c1 [RX-04D]", "measure unit": "µg/mL", "MIC": 1}
{"compound": "N=C(N)NCC[C@@H]1CCC[C@@H](c2ccc(-n3cc4cc(-c5cc(CCC[C@@H](N)CO)cc(Cl)c5F)[nH]c4nc3=O)cc2F)N1 [RX-04C]", "measure unit": "µg/mL", "MIC": 0.5}

Could you now consider this next compound?
# MIC lookup, item C[C@H](N)CCCc1cc(OC(F)(F)F)c(F)c(-c2cc3cn(-c4ccc([C@@H]5CCC[C@@H](CCNC(=N)N)N5)cc4)c(=O)nc3[nH]2)c1 [RX-04A]
0.25
